Values from patent US20240317840A1

# experimental-system: HBsAg of HBV genotype D, serotype ayw (Hepatitis B virus)
# measurement-notes: cell-based or functional assay
result-type: Virus neutralization EC50 (nM)
Provide only the numeric value, understood in nM.

So for NOV3838 (antibody, human IgG1, kappa, V domains shown, Full human IgG1 (kappa) expressed in CHO cells) VH: QVQLQESGGRLVRPGGSLRLSCAASGFIFTDYYMTWIRQAPGKGPEWIAFITSGGETTYYADSVKGRFTISRDNAKKSLFLQMYSLRADDTAVYYCVRAHFDLYQYDTRGDFTYYFDNWGLGTLVSVSS VL: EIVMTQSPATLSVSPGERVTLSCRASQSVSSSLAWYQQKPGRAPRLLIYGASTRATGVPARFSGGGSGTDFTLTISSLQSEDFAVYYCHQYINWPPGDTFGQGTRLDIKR , the logged Virus neutralization EC50 turned out to be 0.12

So for NOV3839 (antibody, human IgG1, kappa, V domains shown, Full human IgG1 (kappa) expressed in CHO cells) VH: QVQLQESGGRLVRPGGSLRLSCAASGFIFTDYYMTWIRQAPGKGPEWIAFITSGGETTYYADSVKGRFTISRDNAKKSLFLQMYSLRADDTAVYYCVRAHFDIYQYDTRGDFTYYFDNWGLGTLVSVSS VL: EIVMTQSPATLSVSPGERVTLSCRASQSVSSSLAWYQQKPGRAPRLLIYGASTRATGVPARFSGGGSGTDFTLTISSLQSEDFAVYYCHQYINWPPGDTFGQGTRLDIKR , the logged Virus neutralization EC50 turned out to be 0.09

So for NOV3840 (antibody, human IgG1, lambda, V domains shown, Full human IgG1 (lambda) expressed in CHO cells) VH: EVQLLESGGGLVQPGGSRRLSCAASGFTFSYYGMNWVRQAPGKGLEWVSGITNSGSITYYADSVKGRFSISRDNSKNTLFLQMNSLRAEDTAVYYCAKVGVRSSSGMWDLDYWGQGTLVTVSS VL: SYVLTQPPSVSVAPGQTARLSCGGNNIGSKSLQWYQQKPGQAPVLVVNDDSDRPSGIPERFSGSNSGNTATLTISRVEAGDEADYYCQVWDTSSDHVVFGGGTKLTVLG , the logged Virus neutralization EC50 turned out to be 0.056
